- ASSAY_PROCEDURE: in vivo
- Set-up: species or system Balb/c nu/nu mice
- EXPERIMENTAL_CONDITIONS: female, Balb/c nu/nu, mouse, iv, 1 MBq, total radioactivity, Tumor-to-organ ratio, Muscle
Where a SMILES comes first, the peptide text is derived from it. [ ]: non-standard residue; d: D form. Tyr(3-I) = N[C@@H](Cc1ccc(O)c(I)c1)C(=O)O
METRIC: tissue to tissue ratio at 0.25 h
Answer field: number only, no words.

Query: Which tissue to tissue ratio at 0.25 h reading was recorded for the molecule CC[C@H](C)[C@H](N)C(=O)N1CCC[C@H]1C(=O)N[C@@H](CC(C)C)C(=O)N1CCC[C@H]1C(=O)N1CCC[C@H]1C(=O)N1CCC[C@H]1C(=O)N[C@@H](CO)C(=O)N[C@@H](CCCNC(=N)N)C(=O)N1CCC[C@H]1C(=O)N[C@@H](Cc1ccccc1)C(=O)N[C@@H](Cc1ccccc1)C(=O)N[C@@H](CCCCN)C(=O)N[C@@H](Cc1ccc(O)c(I)c1)C(N)=O [^131I-labeled PDGFR-P1] (H-IPLPPPSRPFFK[Tyr(3-I)]-NH2; N-terminus assumed) ?
Reply: 2.15
